Would you kindly list IC50 for each of these compounds?
# STUDY_SYSTEM: KRAS^Q61R/CRAF^WT interaction (Homo sapiens, UniProt P01116+P04049, Q61R)
# PROTOCOL_SUMMARY: NanoBRET assay of Halo-KRAS^Q61R/Nano-CRAF^WT binding in live 293FT cells
Numbers only here, please. The scale is µM.

Give the measured IC50 of CC(C)=C[C@H]1C[C@H](C)[C@]2(CC[C@]3(C)C[C@H]4[C@H](C(=O)C[C@@]4(C)O)/C(C=O)=C\C[C@H]32)O1 [Ophiobolin A] .
1.08

Give the measured IC50 of Cc1cc2c(C(C)C)c(O)c(O)c(C=O)c2c(O)c1-c1c(C)cc2c(C(C)C)c(O)c(O)c(C=O)c2c1O [Gossypol] .
5.2

Give the measured IC50 of CN1C(=O)[C@]23CC4=CC=C[C@H](O)[C@H]4N2C(=O)[C@@]1(CO)SS3 [Gliotoxin] .
2.8

Give the measured IC50 of C/C=C(/C)C(=O)O[C@H]1C(C)=C2[C@H]([C@@H]1OC(=O)CCCCCCC)[C@@](C)(OC(C)=O)C[C@H](OC(=O)CCC)[C@@]1(O)[C@H]2OC(=O)[C@@]1(C)O [Thapsigargin] .
14

Give the measured IC50 of CC(C)(C)c1ccc(C(O)CCCN2CCC(C(O)(c3ccccc3)c3ccccc3)CC2)cc1 (stereo not shown) [Terfenadine] .
6

Give the measured IC50 of CN1CCN(CCCN2c3ccccc3Sc3ccc(C(F)(F)F)cc32)CC1 [Trifluoperazine] .
14.3

Give the measured IC50 of Clc1ccc(C(c2ccc(Cl)cc2)n2cc[n+](CC(OCc3ccc(Cl)cc3Cl)c3ccc(Cl)cc3Cl)c2)cc1 (stereo not shown) [Calmidazolium chloride] .
3.6

Cited source for all entries: paper PMC8419108
